Just for reference, ChEMBL document CHEMBL4190225 is where these values come from.

Tested on: PC-3
measurement.protocol: Induction of apoptosis in human PC3 cells assessed as necrotic cells at 10 uM after 48 hrs by Annexin V-FITC/propidium iodide double staining based flow cytometry (reference value: 0.57%)
Type: functional
Lab note: compare Activity against 0.5%. Equal or greater, write label 1. Smaller, write label 0.

* CCOC(=O)C(C(=O)OCC)C1c2c(ccc(OC)c2OC)-c2ccc3cc4c(cc3c2N1C)OCO4 (configuration not stated) | label 0
* CN1c2c(ccc3cc4c(cc23)OCO4)-c2ccc3c(c2C1C[N+](=O)[O-])OCO3 (configuration not stated) | label 1
* COC(=O)C(C(=O)OC)C1c2c(ccc(OC)c2OC)-c2ccc3cc4c(cc3c2N1C)OCO4 (configuration not stated) | label 0
* CCOC(=O)C(C(=O)OCC)C1c2ccccc2-c2ccc3ccccc3c2N1C (configuration not stated) | label 0
* CCOC(=O)C(C(=O)OCC)C1c2c(ccc3c2OCO3)-c2ccc3cc4c(cc3c2N1C)OCO4 (configuration not stated) | label 1
* COC(=O)C(C(=O)OC)C1c2ccccc2-c2ccc3ccccc3c2N1C (configuration not stated) | label 1
